# System: HT-29
# run description: NCI tumour cell line growth inhibition, 48 h
Active and inactive are the calls of the source. Rule as the data show it: active = GI50 up to about 1.1 µM and inactive = higher.
Labels: 1 (active), 0 (inactive)

compound=CC(=O)c1cc2c(Br)cccc2oc1=O system_tested=HT-29 group=0
compound="CCc1cccc(C)c1NC(=O)CC1C(=O)Nc2ccccc2[S+]1[O-] (stereo not drawn)" system_tested=HT-29 group=0
compound=O=C(c1ccccc1)c1oc2ccc(Br)cc2c1-c1cnn(-c2ccccc2)c1 system_tested=HT-29 group=0
compound=O=C(CSc1nnc(-c2ccc(/N=C\c3ccc(Cl)cc3)cc2)o1)Nc1ccc(Cl)cc1 system_tested=HT-29 group=0
compound=COc1ccc(OC)c(NCC(=O)Nn2cnc3ccc(S(=O)(=O)Nc4cc(OC)ccc4OC)cc3c2=O)c1 system_tested=HT-29 group=0
compound=CNC(=S)Nc1sc2c(c1C#N)CCCC2 system_tested=HT-29 group=0
compound="C=C1C(C2(C)C=CC(=O)OC3(C)COC(=O)CC32)C(OC=O)C(OC(=O)C(O)C(C)CC)C2(C)C(c3ccoc3)CC(OC(C)=O)C12O (stereo not drawn)" system_tested=HT-29 group=0
compound=C=CCCC1(CCP(=O)(c2ccccc2)c2ccccc2)OCCO1 system_tested=HT-29 group=0
compound=CCNC(=S)/N=c1\sc(NCC)nc2sc3c(c12)CCN(N1CCc2c(sc4nc(NCC)s/c(=N\C(=S)NCC)c24)C1)C3 system_tested=HT-29 group=0
compound=COc1ccc(-c2nnc(CCCCCCCCc3nnc(-c4ccc(OC)cc4)o3)o2)cc1 system_tested=HT-29 group=0
compound=O=c1c(C(c2ccco2)c2c(O)oc3ccccc3c2=O)c(O)oc2ccccc12 system_tested=HT-29 group=0
compound=CCOC(=O)c1ccc(-c2onc(C)c2Br)[nH]1 system_tested=HT-29 group=0
compound="COc1cc2c(cc1O)CCN[C@@]21CS[C@H]2c3c(OC(C)=O)c(C)c4c(c3C(COC1=O)N1C2C2NC(Cc3cc(C)c(OC)c(O)c32)[C@@H]1O)OCO4 (stereo partly drawn)" system_tested=HT-29 group=1
compound=COC(=O)[C@H]1[C@H]2C[C@@H]3c4[nH]c5cc(OC)ccc5c4CCN3C[C@H]2C[C@@H](OC(=O)c2cc(OC)c(OC)c(OC)c2)[C@@H]1OC system_tested=HT-29 group=0
compound="C[C@@H](CO)C1=CC(C#C[Si](C)(C)C)N(C(=O)Oc2ccccc2)c2ccccc21 (stereo partly drawn)" system_tested=HT-29 group=0
compound=CCc1n[nH]c(=O)n1N=C(c1ccccc1)c1ccccc1 system_tested=HT-29 group=0
compound=Cc1ccc(C(=O)/C=C/c2cccc([N+](=O)[O-])c2)cc1 system_tested=HT-29 group=0
compound="CC(CCOc1ccc2ccc(=O)oc2c1)C1=CC(=O)C(C)(C)O1 (stereo not drawn)" system_tested=HT-29 group=0
compound=Cn1c(=O)c(-c2ccccc2)c(N=[N+]=[N-])c2ccccc21 system_tested=HT-29 group=0
compound=COC(=O)C(CCCN1C(=O)c2ccccc2C1=O)C(=O)OC system_tested=HT-29 group=0
compound=C[C@H](C(=O)N1C(=O)O[C@@H](c2ccccc2)[C@H]1C)[C@H](c1ccccc1)N(Cc1ccccc1)OC(=O)c1ccccc1 system_tested=HT-29 group=0
compound=COc1nc(C)nc2c1ncn2Cc1ccccc1 system_tested=HT-29 group=0
compound=COc1nncc2[nH]c(-c3ccccc3)cc12 system_tested=HT-29 group=0
